These measurements were taken from patent US20260116991A1.

The entries below come with measured OD450 nm values attached.
SYSTEM_UNDER_TEST: T1, polypeptide GC3pep (human)
T1 construct: also called membrane proximal polypeptide GC3pep
T1 peptide: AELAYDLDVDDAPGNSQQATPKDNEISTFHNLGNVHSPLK
METHOD_DESCRIPTION: ELISA, GC3pep coated, antibody 0.01 nM;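 also: bound antibody detected with an HRP-conjugated secondary antibody and TMB substrate, color reaction stopped with HCl before reading absorbance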
Hey, just the number and the unit after it is fine.

Some binders with recorded OD450 nm:
F2.152.3 (antibody, human IgG1, kappa, V domains shown, human-murine chimeric antibody) VH: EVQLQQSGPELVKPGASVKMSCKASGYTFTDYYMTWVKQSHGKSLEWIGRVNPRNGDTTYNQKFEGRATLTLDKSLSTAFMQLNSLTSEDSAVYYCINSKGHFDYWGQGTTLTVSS VL: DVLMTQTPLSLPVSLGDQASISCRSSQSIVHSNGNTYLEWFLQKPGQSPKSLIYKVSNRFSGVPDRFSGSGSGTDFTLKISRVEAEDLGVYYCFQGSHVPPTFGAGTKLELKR    0.35 OD450 nm
F1.136.7 (antibody, human IgG1, kappa, V domains shown, human-murine chimeric antibody) VH: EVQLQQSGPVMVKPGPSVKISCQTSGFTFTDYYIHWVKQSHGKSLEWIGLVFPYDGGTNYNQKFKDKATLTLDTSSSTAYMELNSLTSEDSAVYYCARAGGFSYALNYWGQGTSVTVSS VL: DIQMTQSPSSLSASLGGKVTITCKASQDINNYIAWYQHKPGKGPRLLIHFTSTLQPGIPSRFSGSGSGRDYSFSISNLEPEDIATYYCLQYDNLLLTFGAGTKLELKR    0.04 OD450 nm

Here's the next entry for you.
Find the recorded OD450 nm belonging to F2.154.1 (antibody, human IgG1, kappa, V domains shown, human-murine chimeric antibody) VH: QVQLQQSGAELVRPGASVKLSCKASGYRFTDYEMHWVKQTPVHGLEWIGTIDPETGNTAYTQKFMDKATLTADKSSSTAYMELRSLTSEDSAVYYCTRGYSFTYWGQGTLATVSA VL: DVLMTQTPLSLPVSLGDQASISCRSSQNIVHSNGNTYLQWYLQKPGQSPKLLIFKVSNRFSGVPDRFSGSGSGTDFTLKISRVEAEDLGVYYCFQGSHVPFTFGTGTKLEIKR and report it. 0.2 OD450 nm
